Where do the numbers come from? From ChEMBL document CHEMBL4689842.

System: Fibroblast
Assay: Multiplex assay against human fibroblast
Type: toxicity, cell-based
Conditions: 12 h, 1 µM, compound concentration 1 uM, replicate 2
Everything with Population Healthy Nuclei (%) lower than 80% is NO; everything else, including exactly 80%, is YES.

Oc1cccc(-c2nc(N3CCOCC3)c3oc4ncccc4c3n2)c1    NO
CC[C@H](Nc1ncnc2[nH]cnc12)c1nc2cccc(F)c2c(=O)n1-c1ccccc1    NO
Cl.NC[C@@H]1O[C@H](C23CC4CC(CC(C4)C2)C3)Cc2c1ccc(O)c2O    YES
N#Cc1cccc(C(=O)Nc2cc(-c3ccccc3)nn2-c2ccccc2)c1    YES
CN1C(=O)[C@@H](NC(=O)c2cc3ccccc3[nH]2)N=C(c2ccccc2)c2ccccc21 [DEVAZEPIDE]    YES
CCCc1cc(C)[nH]c(=O)c1CNC(=O)c1cc(-c2ccc(N3CCN(C(C)C)CC3)nc2)cc2c1cnn2C(C)C    NO
NC(=O)c1ccc2nc(-c3ccc(C4(N)CCC4)cc3)c(-c3ccccc3)n2n1    NO
CC[C@@H]1C(=O)N(C)c2cnc(Nc3ccc(C(=O)NC4CCN(C)CC4)cc3OC)nc2N1C1CCCC1    NO
Cl.Cn1c2c(c3ccc(Cl)c(Cl)c31)C(C#N)C1(CCNCC1)NC2=O (stereo unspecified)    NO
CCCCN(CC)c1nc(C)nc2c1c(C)cn2-c1c(C)cc(C)cc1C.Cl    NO
CC(C)[C@H](CO)Nc1nc(Nc2cccc(Cl)c2)c2ncn(C(C)C)c2n1    YES
N#CCNC(=O)c1ccc(-c2ccnc(Nc3ccc(N4CCOCC4)cc3)n2)cc1    YES
CC(Cc1ccc(O)c(O)c1)C(C)Cc1ccc(O)c(O)c1 (stereo unspecified) [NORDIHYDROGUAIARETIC ACID]    YES

====

System: Fibroblast
Assay: Incucyte cell viability with human fibroblast; further: filed as whole numbers so only -1 and 0 and 1 occur
Format: toxicity, cell-based
Conditions: 24 h, 10 µM, compound concentration 10 uM, replicate number 1, timepoint 24 hours
Reported values of Growth Rate for individual entries
endpoint name: Growth Rate

CCCCCNC(=N)N/N=C/c1c[nH]c2ccc(OC)cc12.O=C(O)/C=C\C(=O)O [TEGASEROD MALEATE]    0
c1ccc(-c2oc3ncnc(NC[C@@H]4CCCO4)c3c2-c2ccccc2)cc1    0
COc1ccc(CCc2nc3cc(-c4c(C)noc4C)ccc3n2C[C@H](C)N2CCOCC2)cc1Cl    1
OCCn1cc(-c2ccc3c(c2)CCC3=NO)c(-c2ccncc2)n1    1
COc1cc(C#N)ccc1S(=O)(=O)Nc1ccc2c(c1)cc(C)c(=O)n2C    1
Cc1ccc(S(=O)(=O)NC2c3ccccc3Oc3ccccc32)cc1    1
O=C(NNS(=O)(=O)c1ccccc1)c1cc(-c2ccnnc2)ccc1F [WM-2474]    1
CC(C)c1cc(Nc2nc(N3CCC[C@H](N)C3)ncc2C(N)=O)cc(C(C)C)n1    0
CCCc1cc(C)[nH]c(=O)c1CNC(=O)c1cc(-c2ccc(N3CCN(C(C)C)CC3)nc2)cc2c1cnn2C(C)C    0

====

Reported values of Population Mitotic Cells (%) for individual entries
Test system: Fibroblast
Assay: Multiplex assay against human fibroblast
Assay type: toxicity, cell-based
Details: 24 h, 10 µM, compound concentration 10 uM, replicate 1
endpoint name: Population Mitotic Cells (%)

CC(C)C[C@H](NC(=O)[C@H](Cc1ccccc1)NC(=O)CNC(=O)CNC(=O)[C@@H](N)Cc1ccc(O)cc1)C(=O)O [ENKEPHALIN]    40
Cl.NC[C@@H]1O[C@H](C23CC4CC(CC(C4)C2)C3)Cc2c1ccc(O)c2O    41
